experiment: yeast display, Sf9 membrane polyspecificity reagent, FACS + sequencing; frameworks hold sequencing errors
assay-readout: polyreactivity (PSR sort gate)

- QGQLVESGGGLVQAGGCLRLSCAASGGTFDYNAMGWYRQAPGKERELVAAITSGASTYYADSVKGRFTISRDNAKNTVYLQMNSLKPQDTAVYYCAKGPTPGYDYWGQGTQVTVSS: low polyreactivity
- QVQLVESGGGLVQAGGSLRLSCAASGFTFYYYAMGWYRQEPGKERELVAAISSRGGSTYYADSVKGRFTISRDNAKNTVYLQMNSLKREDTPVYYCAAVYKYGGATYRSTSYYYWGQGTQVTVSS: high polyreactivity
- QVQIVESGGGLVQAGGSLRLSCAASGRIFDYYTMGWYRQAPGKERELVASISDGGRTNYADSVKGRFTISRDNAKNTVYLQMNSLKPEDTAVYYCAADFAPVAFDYWGQGTQVTVSS: low polyreactivity
- QVQLVESGGGLVQAGGSLRLSSASSGFTFNKYAMGRYRQAPGKERELVAAISSSGGSTRYADSVKGRFTISRDNAKNTVYLQMNSLNPEDTAVFYCAVYVTRDSGWLLYDYWGQGTQVTVSS: high polyreactivity

---

assay: yeast display, Sf9 membrane polyspecificity reagent, FACS + sequencing; frameworks hold sequencing errors
assay-readout: polyreactivity (PSR sort gate)

• QVQLVESGGGLVQAGGSLRLSCAASGNTFWPYAMGWYRQAPGKERELVAAISWRGSRTYYADSVKGRFTISRDNAKNTVYLQMNSLKPEDTAVYYCAADYKYVGSEYGYWGQGTQVNVSS = low polyreactivity
• QFQLEESGGGLVQAGGSLRLSCAASARIFLNYAMGWFRQAPGKEMELVAAIRSASSTYYADSVKGRFTISRDNAKNTVYLQMNSLKAEDTAVYYCARLRYFLLNGSLRYGSSDRDYWGQGTQVTVSS = high polyreactivity
• QVQLVESGGGLVQAGGSLRLSCAASGYIFTPYAMGWYRQAPGKERELVAAITGSGSSTYYADSVKGRFTISRDNAKNTVYLQMNSLKPEDTAGYYCAADSYGFYGYYYYELEYWGQGTQVTVSS = low polyreactivity
• QVQLVESGGGLVQAGGSLRLSCAASGSIFNRYAMGWYRQAPGKERELVAAISTHTGTTYYADSVKGRFTISRDNAKNTDYLQMNSLKPEDTAGYYCAKRSRYGYGKSYDYWGQGTQVTVSS = high polyreactivity

---

assay: yeast display, Sf9 membrane polyspecificity reagent, FACS + sequencing; frameworks hold sequencing errors
assay-readout: polyreactivity (PSR sort gate)

• QDQLVESGGGLVQAGGSLRLSCAASGRIFHFNAMGWYRQAPGKERELVAAITSSGGSTDYADSVKGRFTISRDTAKNTVYLQMNRLKPEDTADYYCAKRVDAYGWWGRRSGVLSDYWGQGTQVTVSS = low polyreactivity
• QVQLVESGGGLVQAGGSLRLSCAASGFILGQYTMGWYRQAPGKERELVASINGSDGITYYADSVKGRFTISRDNAKNTVYLQMNSLKPEDTAVYYCARPPRHYTFWGRRFYYWGQGTQVTVSS = low polyreactivity
• QVQLEESAGGLVQAGGSLRLSCAASGRIFTGSNVMVWYRQSPGKETEFVAVINSGGGSTYYADSVKGRFTISRDNAKNTVFLQMNSLKPEDTAVYYCAADVGGWGYYYWGQGTQVTVSS = low polyreactivity
• QVQLVESGGGLVQAGGSLRLSCAASGRLMGWYRQAPGKERELVAAIRVSSGSTYYADSVKGRFTISRDNAKNTVYLQMNSLKPEDTAVYYCAKYVYLGYVRQVPYFRYDYWGQGTQVTVSS = high polyreactivity
• RVQLVESGGGLVQAGGSLRLSCAASGSIFLIYAMGWYRQAPGKERELVAAISTGDSTYYADSVKGRFTISRDNAKNTVYLQMNSLKPEDTAVYYCAADTYSYEVPWWSAGMDYWGQGTQVTVSS = high polyreactivity
• QVQLVESGGGLVQAGGSLRLSCAASGSTNGRYAMGWYRQAPGKERELVAAISYSGGSTYYADTVKGRFTISRDNAKNTVYLQMNSLKPEDTAVYYCAAQYVRKYRVSRGYNYWGQGTQVTVSS = high polyreactivity

---

test: yeast display, Sf9 membrane polyspecificity reagent, FACS + sequencing; frameworks hold sequencing errors
assay-readout: polyreactivity (PSR sort gate)

* QVQLVESGGGLVQAGGSLRLSCAASGRTFLYYAMGWESQGPGKERELVAAITGRGGSTYSADSVKGRFTISRDNAKNTVYLQMNILKPEDTAVYYCAARDNWIRRDGYWGQGTQVTVSS | high polyreactivity
* QVQLVESGGGLVQAGGSLRLSCAASGSTFHWYVMGWYRQAPAKERELVAAITWSGGSTYYADSVKGRFTISRDNAKNTVYLQMNSLKPEDTAVYYCNAVFWIWNAGYDYWGQGTQVTVSS | low polyreactivity
* QVQLVESGGGLVQAGGSLRLSCAASGSIFYLNAMGWYRQAPGKERELVAAITNGGSTYADSVKGRFTISRDNAKNTVYLQMNSLKPEDTAGYYCATRSWELGDYWGQGTQVTVSS | low polyreactivity
* QVQLVESGGGLVQAGGSLRLSCAASGLNFRKYAMGWYRQAPGKERELVAGISSGGSTYYADSVKGRFTISRDNAKNTVYLQMNSLKPEDTAVYYCAAKALRTMYYWGQGTQVTVSS | high polyreactivity
* QVQLVESGGGLVQAGGSLRISCAASGRTFSRYAMGGYRQAPGTERELVAAISRRGSSTYYADSVKGRFTISRDNAKNTVYLQINSLKPEDTAVYYCNTVTFPYVPALYDYWGQGTQVTVSS | high polyreactivity
* QVQLVESGGGLVQAGGSLRLSCAASGSIFYENTMGWYRQAPGKERELVASISGGGSTYADSVKGRFTISRDNAKHTVYLQMNSLKPEDTAVYYCNADSSTEYDYWGQGTQVTVSA | low polyreactivity
* QVQLVESGGGLVQAGGSLRLSCAASGSIFSTYARGWYRQAPGKERELVATITSGGNTNYADSVKGRYTISRDNAKNTVYLQMNSLKPEDTAVDYSNKEWDGDGYTDDWDYDYWGQGTQVTVSS | low polyreactivity
* QVQLVESGGGLVQAGGSLRLSCAASGRTFFYNAMGWYRQAPGKERELVAAISSGGGSTYYADSVKGRFTISRDNAKNTVYLQMNSLKPEDTAVYYCNAYKGQTGGGGRYGYWGQGTQVTVSS | high polyreactivity
* QVQLVESGGGLVQAGGSLRLSCAASGSIFDHNAMGWYRQAPGKEREFFARITSSGGGTYYADSVKGRFTISRDNAKNTVYLQMNSLKPEDTAVYYCAKTYYRQGARYPTMFYYWGQGTQVTVSS | low polyreactivity
* QVQLVESGGGLVQAGGSLRLSCAASGLIFQSYAMGWYRQAPGKERELVAVITWSGTSTYADSVKGRFTISRVNAKNTVYLQMNSLKPEDTAVYYCAASKYGSFTNFGYWGQGTQVTVSS | low polyreactivity

---

assay: yeast display, Sf9 membrane polyspecificity reagent, FACS + sequencing; frameworks hold sequencing errors
assay-readout: polyreactivity (PSR sort gate)

• QVQLVESGGGLVQAGGSLRLSCAASGTTIKYYAMGWSRQAPGKERELVARITSDGGSTFYADSVKGRFTISRDNAKNTVYLQMNSLKPEDTAVYYCNTAYAFRHWWFYPMDYWGQGTQVTVSS = high polyreactivity
• QVQLVESGVGLVQAGGSLRLTCAASGSIFSVYAMGWYRPAPGKESELVAAITSSGGLTYYADSVKGRITISRDYAKNSVYLQMTSLIPEDTAVYYCATRGIPDDIARDYWGLGTQVTVSS = low polyreactivity
• QVQLVESGGGLVQAGGSLRLSCAASGSTFYIYAMGWYRQAPGKERELVAAITSRGTITSYADSVKGRFTISRDNAKNTVYLQMNSLKPEDTAVYYCAADYWQDGIAYWYDYWGQGTQVTVSS = low polyreactivity
• QVQLVESGGGLVQAGGRLRLSCAASGSIFQKNAMGWYRQAPGKERELVAVITRGGTSTYYADSVKGRFTISRDNAKNTVYLQMNSLKTEDTAVYYCAAKADKRLDYWGQGTQVTVSS = low polyreactivity
• QVQLVESGGGLVQAGGSLRLSCAASGSILQRNAMGWYRQAPGKERELVAAISSSGDNTYYADSVKGRITISRDNAKNTVYLQMNSLKPEDTAVYYCATDADIYFQEYDYWGQGTQVTVSS = low polyreactivity
• QVQLVESGGGLVQAGGSLRLSCAASGRTFYWYAMGWYRQAPGKERELVAAISSGGSTYYADSVKGRFTISRDNAKNTVYLQMNSLKPEDTAVYYCAAVTPSGAHRSAYHPISDYWGQGTQVTVSS = low polyreactivity
• QVQLVESGGGLVQAGGSLRLSCAASGFTFPWYAMGWYRQAPGKERELVAAITSGGGSTYYADSVKGRFTISRYNAKNTVYLQMNSLKPEDTAVYYCATSYTKQGFRYYYWGQGTQVTVSS = high polyreactivity
• QVQLVESGGGLVQAGGSLRLSCAASGITFSVYTMGWYRQAPGKERELVAAIDSDGITNYADSVKGRFTISRDNAKNNVYLQMNSLKPEDTAVYYCAKQSGRADGVSGFDYWGQGTQVTVSS = low polyreactivity
• QLQLVESGGGLVQAGGSLRLTCAASGIIFAYNARGWYRQAPGKERELVATITDSRGSTSYADSVKGRFTISRDNAKNTVYLQMNSLKPEDTAVYYCAVLPVYWYWRNYVYLSGYDYWGQGTQVTVSS = low polyreactivity
• QVQLVESGGGLVQAGGSLRLSCAASGSTFYLYAMGWYRQAPGKERELVAAITRGGTTNYADSVKGRFTISRDNAKNTVYLQMNSLKPEDTAVYYCAKEVTTLLSLYEIVDRDYWGQGTQVTVSS = low polyreactivity
• QVQLVESGGGLVQAGGSLRLICAASGSTFTTYAMGWYRQAPGKEREFVAGISWSGGSTRYADSVKGRFTISRDNAKNTVYLQMNSLKPEDTAVYYCAAGRKRDSKYYYWGQGTQVTVSS = high polyreactivity
